Target: T1, Efb-N30-105 (Staphylococcus aureus strain Newman, UniProt A6QG59 30-105)
T1 sequence: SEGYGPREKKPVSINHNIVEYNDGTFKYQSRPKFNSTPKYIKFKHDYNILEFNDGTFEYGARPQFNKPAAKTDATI
Experiment: apparent Kd from half-maximal binding in ELISA (GraphPad Prism)
pKd: −log10 of the molar value.

{"binder": "FBE5-F11 (scFv, V domains shown) VH: QVQLQESGGGVVQPGRSLRLSCAASGFTFSSYGMHWVRQAPGKGLEWVAVISYDGSNKYYADSVKGRFTISRDNSKNTLYLQMNSLRAEDTAVYYCAKDLASSGFDYWGQGTLVTVSS VL: QSVLTQPPSVSAAPGQKVTISCSGSSSNIGNNYVSWYQQLPGTAPKLLIYDNNKRPSGIPDRFSGSKSGTSATLGITGLQTGDEADYYCGTWDSSLSAEVFGGGTKLTVL", "pKd": 9.66}
{"binder": "FBE5-D9 (scFv, V domains shown) VH: QVQLVESGGGVVQPGRSLRLSCAASGFTFSSYGMHWVRQAPGKGLEWVAVISYDGSNKYYADSVKGRFTISRDNSKNTLYLQMNSLRAEDTAVYYCAKNQEWLVPGYWGQGTLVTVSS VL: QSALTQPASVSGSPGQSITISCTGTSSDVGGYNYVSWYQQHPGKAPKLMIYDVSNRPSGVSNRFSGSKSGNTASLTISGLQAEDEADYYCSSYTSSSTLVFGGGTKLTVL", "pKd": 8.88}
{"binder": "FBE5-F9 (scFv, V domains shown) VH: QMQLVQSGGGVVQPGRSLRLSCAASGFTFSSYGMHWVRQAPGKGLEWVAVISYDGSNKYYADSVKGRFTISRDNSKNTLYLQMNSLRAEDTAVYYCAKEGDGDYGGVLDYWGQGTLVTVSS VL: QSVLTQPPSVSAAPGQKVTISCSGSSSNIEKNYVSWYQQLPGTAPKLLIYDNNKRPSGIPDRFSGSKSGTSATLGITGLQTGDEADYYCGTWDSSLSAVVFGGGTKLTVL", "pKd": 8.22}
{"binder": "FBE5-B9 (scFv, V domains shown) VH: EVQLVESRGGVVQPGRSLRLSCAASGFTFSSYGMHWVRQAPGRGLEWVAVISYDGSNKYYADSVKGRFTISRDNSKNTLYLQMNGLRSDDTAVYYCARGGDDYGDYFDYWGQGTLVTVSS VL: QSVLTQPPSVSAAPGQKVTISCSGSSSNIGNNYVSWYQQLPGTAPKLLIYDNNKRPSGIPDRFSGSKSGTSATLGITGLQTGDEADYYCGTWDSSLSAAVFGGGTKLTVL", "pKd": 8.46}

From: patent US20200283508A1
